- method notes: Antiproliferative activity against human Ovarian cancer LA#83 cells assessed as cell survival at 20 uM after 72 hrs by MTT assay relative to control
- Format: functional
- measurement parameters: read-out: Survival
Label scheme, based on viability at 20 µM: bin 0: < 50%; bin 1: ≥ 50% and < 70%; bin 2: ≥ 70%

Example cases with answers are listed next.
[
  {
    "molecular string": "CN1c2ccccc2C(=O)N2CCc3c([nH]c4ccccc34)[C@H]21",
    "assigned label": "bin 1"
  },
  {
    "molecular string": "Nc1nccc2c1ncn2[C@@H]1C=C(CO)[C@@H](O)[C@H]1O",
    "assigned label": "bin 0"
  }
]

Band assignment needed for `CCCCN1C(=O)[C@H]2Cc3c(n(CO)c4ccccc34)CN2C1=O` please.
bin 1

Band assignment needed for `CCCCN1C(=O)[C@@H]2Cc3c([nH]c4ccccc34)CN2C1=O` please.
bin 2

Band assignment needed for `C#Cc1cccc(Nc2ncnc3cc(OCCOC)c(OCCOC)cc23)c1` please.
bin 0

Band assignment needed for `CCCCN1C(=O)[C@H]2Cc3c([nH]c4ccccc34)CN2C1=O` please.
bin 1

Band assignment needed for `CCCCN1C(=O)[C@@H]2Cc3c(n(CO)c4ccccc34)CN2C1=O` please.
bin 2

Band assignment needed for `CN1CCN(C(=O)[C@H]2Cc3c([nH]c4ccccc34)[C@@H]3N(C)c4ccccc4C(=O)N23)CC1` please.
bin 2

Band assignment needed for `CCN(CC)CCNC(=O)c1c(C)[nH]c(/C=C2\C(=O)Nc3ccc(F)cc32)c1C` please.
bin 0

====

This section presents compounds with their documented viability at 20 µM values.
- method notes: Antiproliferative activity against human Ovarian cancer LA#83 cells assessed as cell survival at 20 uM after 72 hrs by MTT assay relative to control
- Type: functional
- measurement parameters: read-out: Survival
Write down the numeric answer in % and omit the unit.

Below: 3 compounds and their reported viability at 20 µM.
[
  {
    "molecular string": "COc1cc2nc(N3CCCN(C)CC3)nc(NC3CCN(Cc4ccccc4)CC3)c2cc1OC",
    "readout": "viability at 20 µM",
    "recorded measurement": 57
  },
  {
    "molecular string": "C#CCN(C)Cc1ccccc1",
    "readout": "viability at 20 µM",
    "recorded measurement": 77.7
  },
  {
    "molecular string": "Cc1nc(Nc2ncc(C(=O)Nc3c(C)cccc3Cl)s2)cc(N2CCN(CCO)CC2)n1",
    "readout": "viability at 20 µM",
    "recorded measurement": 38.3
  }
]

Using the record for `N[C@@H]1C[C@H]1c1ccccc1.N[C@H]1C[C@@H]1c1ccccc1` , report its viability at 20 µM.
77.5

Using the record for `CN1C(=O)[C@@]23C[C@]4([C@]56C[C@@]78SS[C@@](CO)(C(=O)N7[C@H]5Nc5ccccc56)N(C)C8=O)c5ccccc5N[C@@H]4N2C(=O)[C@]1(CO)SS3` , report its viability at 20 µM.
-3.25

====

- Test system: MCF7
- method notes: Induction of apoptosis in human MCF7 cells assessed as viable cells at 15 uM after 72 hrs by AnnexinV-FITC staining based flow cytometry (reference value: 60.5 +/- 6 %)
- Format: functional
- measurement parameters: MCF7, 72 h, read-out: Activity
readout: viability at 15 µM

Below: 2 molecules and their reported viability at 15 µM.
[
  {
    "molecular string": "CCCCN1C(=O)[C@H]2Cc3c([nH]c4ccccc34)CN2C1=O",
    "recorded measurement": "61.2%"
  },
  {
    "molecular string": "CN1CCN(C(=O)[C@H]2Cc3c([nH]c4ccccc34)[C@@H]3N(C)c4ccccc4C(=O)N23)CC1",
    "recorded measurement": "54.7%"
  }
]

For MCF7, provide viability at 15 µM of `COc1cc2nc(N3CCCN(C)CC3)nc(NC3CCN(Cc4ccccc4)CC3)c2cc1OC` please.
65.8%

====

This section presents compounds with their documented IC50 values.
- Tested on: MCF7
- method notes: Antiproliferative activity against human MCF7 cells after 48 to 72 hrs by MTT assay
- Assay type: functional, cell-based
Write down the numeric answer in µM and omit the unit.

Below: 2 compounds and their reported IC50.
[
  {
    "molecular string": "CCCCN1C(=O)[C@@H]2Cc3c([nH]c4ccccc34)CN2C1=O",
    "recorded measurement": 37.5
  },
  {
    "molecular string": "CN1c2ccccc2C(=O)N2CCc3c([nH]c4ccccc34)[C@H]21",
    "recorded measurement": 5.4
  }
]

Using the record for `CCCCN1C(=O)[C@H]2Cc3c(n(CO)c4ccccc34)CN2C1=O` , report its IC50.
30.7

Using the record for `CN1CCN(C(=O)[C@H]2Cc3c([nH]c4ccccc34)[C@@H]3N(C)c4ccccc4C(=O)N23)CC1` , report its IC50.
34.8

Using the record for `CCCCN1C(=O)[C@H]2Cc3c([nH]c4ccccc34)CN2C1=O` , report its IC50.
32.3

Using the record for `CCCCN1C(=O)[C@@H]2Cc3c(n(CO)c4ccccc34)CN2C1=O` , report its IC50.
38.7

Using the record for `Cc1ccc(-c2cn3c(n2)sc2ccccc23)cc1` , report its IC50.
30.4

====

- method notes: Antiproliferative activity against human Ovarian cancer LA#110 cells assessed as cell survival at 20 uM after 72 hrs by MTT assay relative to control
- Assay type: functional
- measurement parameters: read-out: Survival
This section presents compounds with their documented viability at 20 µM values.
Write down the numeric answer in % and omit the unit.

[
  {
    "molecular string": "CCN(CC)CCNC(=O)c1c(C)[nH]c(/C=C2\\C(=O)Nc3ccc(F)cc32)c1C",
    "viability at 20 µM [%]": 2.6
  },
  {
    "molecular string": "CN1C(=O)[C@@]23C[C@]4([C@]56C[C@@]78SS[C@@](CO)(C(=O)N7[C@H]5Nc5ccccc56)N(C)C8=O)c5ccccc5N[C@@H]4N2C(=O)[C@]1(CO)SS3",
    "viability at 20 µM [%]": -2.63
  },
  {
    "molecular string": "CCCCN1C(=O)[C@@H]2Cc3c(n(CO)c4ccccc34)CN2C1=O",
    "viability at 20 µM [%]": 71.8
  },
  {
    "molecular string": "C#Cc1cccc(Nc2ncnc3cc(OCCOC)c(OCCOC)cc23)c1",
    "viability at 20 µM [%]": 27.7
  },
  {
    "molecular string": "CN1CCN(C(=O)[C@H]2Cc3c([nH]c4ccccc34)[C@@H]3N(C)c4ccccc4C(=O)N23)CC1",
    "viability at 20 µM [%]": 56.7
  }
]

Using the record for `Cc1ccc(-c2cn3c(n2)sc2ccccc23)cc1` , report its viability at 20 µM.
77.1

Using the record for `Cc1nc(Nc2ncc(C(=O)Nc3c(C)cccc3Cl)s2)cc(N2CCN(CCO)CC2)n1` , report its viability at 20 µM.
20.5

Using the record for `CCCCN1C(=O)[C@H]2Cc3c([nH]c4ccccc34)CN2C1=O` , report its viability at 20 µM.
78
